Tested On: T1, rh-TNFR2-His (recombinant human TNFR2, His tag) (human, UniProt P20333 23-257)
T1 construct: Soluble antigen of the ForteBio assay; not shown: His tag
T1 sequence (looked up): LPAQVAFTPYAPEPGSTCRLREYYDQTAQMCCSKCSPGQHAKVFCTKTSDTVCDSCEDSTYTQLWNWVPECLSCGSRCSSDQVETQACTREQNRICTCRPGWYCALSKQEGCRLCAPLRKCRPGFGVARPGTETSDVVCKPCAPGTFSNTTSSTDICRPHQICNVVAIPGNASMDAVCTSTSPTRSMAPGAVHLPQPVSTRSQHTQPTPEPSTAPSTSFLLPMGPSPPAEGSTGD
Test Method Notes: BLI (ForteBio), antibody on sensor, 100 nM rh-TNFR2-His in solution, 1:1 model

[
  {
    "Binder": "chimeric antibody 3C4 (antibody, human IgG1, kappa, V domains shown) VH: QVQLQQSGPELVKPGASVTISCKASDYSFTNYYIHWVKQRPGQGLEWIGWIYPGNVITKYHEKFKGKAILTADTSSTTAYMQLNSLTSEDSAVYFCARSRATGYFDYWGQGTTLTVSS VL: DIQMTQTTSSLSASLGDRVTISCRASQDIRNYLNWFQQKPDGTIKLLIYYTSRLHSGVPSRFSGSGSGTDYSLTISNLEQEDMATYFCQQFNTLPWTFGGGTKLEIKR",
    "koff, s⁻¹": 0.00176
  },
  {
    "Binder": "chimeric antibody 72G8 (antibody, human IgG1, kappa, V domains shown) VH: EVQLQQSGAELARPGASVMLSCKASGYTFTSYWMQWLKQRPGQGLEWIGAIYPGDGDTRYTQKFKGKATLTADKSSSTAYMQLSSLASEDSAVYYCVRDDGLYYAMDYWGQGTSVTVSS VL: QIVLTQSPTIMSASLGERVTMTCTASSSVSSSYLHWYQQKPGSSPKLWIYSTSNLASGVPARFSGSGSGTSYSLTISSMEAEDAATYYCHQYHRSPPTFGGGTKLEIKR",
    "koff, s⁻¹": 0.00515
  },
  {
    "Binder": "positive control antibody OPI (humanized antibody SBT-002e in WO 2017083525) (antibody, V domains shown, also called Benchmark OPI) VH: QVTLKESGPALVKPTQTLTLTCTFSGFSLSTSGMGVGWIRQPPGKALEWLAHIWWDDDKFYNPSLKSRLTISKDTSKNQVVLTMTNMDPVDTATYYCARLTGTRYFDYWGQGTTVTVSS VL: DVQMTQSPSSLSASVGDRVTITCKASQDINKFIAWYQQKPGKAPKLLIHYTSTLQPGIPSRFSGSGSGRDYTFTISSLQPEDIATYYCLQYGNLWTFGGGTKVEIK",
    "koff, s⁻¹": 0.000229
  },
  {
    "Binder": "chimeric antibody 69B1 (antibody, human IgG1, kappa, V domains shown) VH: QIQLVQSGPELKKPGETVKISCKASGYTFTDYSMNWVKQAPGKGLKWMGWLNTETGEPIYADDFKGRFVFSLETSASTAYLEINNLNDEDTATYFCAREAIYYGTSYVLDYWGQGTSVTVSS VL: DIVLTQSPASLAVSLGQRATISCRASESVEYYGTNFMQWYQQKPGQPPKLLIYSASNVESGVPARFSGSGSGTDFSLNIHPVEEDDIAVYFCQQSRKDPSTFGEGTNLEIKR",
    "koff, s⁻¹": 0.000519
  }
]

Values were extracted from patent US20240026019A1.
